measurementDescription: Body and organ weights of cynomolgus monkeys (Example 46)
Assay type: in vivo
conditionInfo: day 50
Strand notation (5' to 3'): a small letter for the sugar, then the base; units joined by * are phosphorothioate-linked, units joined directly phosphodiester-linked; [ ] holds rarer units or linkages, { } end groups; capitals alone tell only the bases. e = 2'-O-(2-methoxyethyl) (MOE); [5mC] = 5-methylcytosine; d = 2'-deoxy (DNA)
Below, each of the substances is paired with its reported body weight value.
# number only, unit g dropped from output

Solved cases (3 shown):
ISIS 449708: 3-8-3, 4-8-4, 2-10-2, 3-10-3 or 4-10-4 MOE microwalk gapmer (Table 46) (antisense eA*e[5mC]*eA*dG*dT*dT*dT*d[5mC]*dT*dG*dG*e[5mC]*eA*eG) : 2076
ISIS 445531: 5-8-5 or 6-8-6 MOE microwalk gapmer (Table 44) (antisense eG*eG*e[5mC]*eA*eT*dT*dG*dG*dT*dG*d[5mC]*dA*d[5mC]*eA*eG*eT*eT*eT) : 2197
ISIS 449709: 3-8-3, 4-8-4, 2-10-2, 3-10-3 or 4-10-4 MOE microwalk gapmer (Table 46) (antisense eG*e[5mC]*eA*e[5mC]*dA*dG*dT*dT*dT*d[5mC]*dT*dG*dG*d[5mC]*eA*eG*eG*e[5mC]) : 2147

Next:
(Q) Form field: reported body weight of ISIS 416850: MOE gapmer, nucleobases 1275 to 1318 of SEQ ID NO: 1 (Table 8) (antisense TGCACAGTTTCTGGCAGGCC; MOE gapmer, wing and gap sizes not given here)
(A) 2143
